STUDY SYSTEM: chimpanzee Fab 1A5
Sequence (chain, as listed by the source, chain 1 of 2): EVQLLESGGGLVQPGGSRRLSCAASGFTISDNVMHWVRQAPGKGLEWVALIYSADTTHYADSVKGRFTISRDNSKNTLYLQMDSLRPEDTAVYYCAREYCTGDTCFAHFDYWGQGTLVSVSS
Sequence (chain, as listed by the source, chain 2 of 2): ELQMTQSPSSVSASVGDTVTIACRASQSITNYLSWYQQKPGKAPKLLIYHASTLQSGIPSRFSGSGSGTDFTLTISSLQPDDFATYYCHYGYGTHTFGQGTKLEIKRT
EXPERIMENT DESCRIPTION: competition ELISA: Fab 1A5 (1.04 nM) pre-incubated with peptide in serial dilution, then binding to DENV-2 coated wells
METRIC NAME: pIC50
Numbers only, as −log10 of the molar value.

Prompt: Entry DRGWGNGSGLFGKGG (modifications not checked) [fusion peptide …] has what pIC50?
Response: 3.77
